Parameter 'readout' = log10 of Ki; parameter 'system' = Ras-related protein Rab-2A (Canis lupus familiaris).
experimental-endpoint: log10 of Ki (log10 of the value in nM)

- cpd-smiles: "COc1ccc(-c2noc(CCC(=O)N3CCN(c4cc(C)ccc4C)CC3)n2)cc1"
  experimental-system: "Ras-related protein Rab-2A (Canis lupus familiaris)"
  numeric-readout: 2.20
- cpd-smiles: "COc1ccc(-c2noc(CCC(=O)N3CCN(c4cccc(C)c4C)CC3)n2)cc1"
  experimental-system: "Ras-related protein Rab-2A (Canis lupus familiaris)"
  numeric-readout: 2.18
- cpd-smiles: "COc1ccc(-c2noc(CCC(=O)N3CCN(c4ccc(C)cc4)CC3)n2)cc1"
  experimental-system: "Ras-related protein Rab-2A (Canis lupus familiaris)"
  numeric-readout: 1.70
- cpd-smiles: "COc1ccc(-c2noc(CCCC(=O)N3CCN(c4cc(C)ccc4C)CC3)n2)cc1"
  experimental-system: "Ras-related protein Rab-2A (Canis lupus familiaris)"
  numeric-readout: 3.01
- cpd-smiles: "COc1ccc(-c2noc(CCC(=O)N3CCN(c4cccc(Cl)c4)CC3)n2)cc1"
  experimental-system: "Ras-related protein Rab-2A (Canis lupus familiaris)"
  numeric-readout: 2.73
- cpd-smiles: "Cc1ccc(C)c(N2CCN(C(=O)CCc3nc(-c4ccc(Cl)cc4)no3)CC2)c1"
  experimental-system: "Ras-related protein Rab-2A (Canis lupus familiaris)"
  numeric-readout: 2.04
- cpd-smiles: "COc1ccc(-c2ccc(CCC(=O)N3CCN(c4cc(C)ccc4C)CC3)s2)cc1"
  experimental-system: "Ras-related protein Rab-2A (Canis lupus familiaris)"
  numeric-readout: 2.20
- cpd-smiles: "Cc1ccc(C)c(N2CCN(C(=O)CCc3nc(-c4ccc(F)cc4)no3)CC2)c1"
  experimental-system: "Ras-related protein Rab-2A (Canis lupus familiaris)"
  numeric-readout: 1.30
- cpd-smiles: "COc1ccc(-c2noc(CCC(=O)N3CCN(c4ccccc4C(F)(F)F)CC3)n2)cc1"
  experimental-system: "Ras-related protein Rab-2A (Canis lupus familiaris)"
  numeric-readout: 2.11
- cpd-smiles: "Cc1ccc(C)c(N2CCN(C(=O)CCc3nc(-c4ccccc4)no3)CC2)c1"
  experimental-system: "Ras-related protein Rab-2A (Canis lupus familiaris)"
  numeric-readout: 1.70

---

Ki values recorded for UniProt:P61105
Sequence (P61105 whole entry, looked up): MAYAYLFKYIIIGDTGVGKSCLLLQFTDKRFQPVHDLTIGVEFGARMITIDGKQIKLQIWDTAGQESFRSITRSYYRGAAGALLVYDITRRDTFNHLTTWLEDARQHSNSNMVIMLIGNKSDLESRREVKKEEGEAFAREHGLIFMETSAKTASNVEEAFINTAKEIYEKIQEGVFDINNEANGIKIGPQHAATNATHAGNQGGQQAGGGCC

- cpd-smiles: "Cc1ccc(C)c(N2CCN(C(=O)CCc3nc(-c4ccccc4C)no3)CC2)c1"
  Ki [nM]: 110
- cpd-smiles: "COc1ccc(-c2noc(CCC(=O)N3CCN(c4ccccc4Br)CC3)n2)cc1"
  Ki [nM]: 210
- cpd-smiles: "Cc1ccc(C)c(N2CCN(C(=O)CCc3nc(-c4cccc(Cl)c4)no3)CC2)c1"
  Ki [nM]: 180
- cpd-smiles: "COc1ccc(-c2ccc(CCC(=O)N3CCN(c4cc(C)ccc4C)CC3)[nH]2)cc1"
  Ki [nM]: 330
- cpd-smiles: "COc1ccc(-c2noc(CCC(=O)N3CCN(c4ccccc4OC)CC3)n2)cc1"
  Ki [nM]: 80
- cpd-smiles: "COc1ccc(-c2noc(CCC(=O)N3CCN(c4ccccc4F)CC3)n2)cc1"
  Ki [nM]: 50
- cpd-smiles: "Cc1ccc(C)c(N2CCN(C(=O)CCc3nc(-c4ccccc4Br)no3)CC2)c1"
  Ki [nM]: 200
- cpd-smiles: "COc1ccc(-c2noc(CCC(=O)N3CCN(c4cccc(OC)c4)CC3)n2)cc1"
  Ki [nM]: 410
- cpd-smiles: "COc1ccc(-c2cc(CCC(=O)N3CCN(c4cc(C)ccc4C)CC3)on2)cc1"
  Ki [nM]: 160
